Tested on: Escherichia coli TOP10;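 further: peptides expressed intracellularly from a pBAD plasmid library in pooled LB shake-flask culture, induced with 0.3% L-arabinose, DNA abundance read by NGS, three biological replicates, DESeq2 with apeglm shrinkage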
Experiment: shrunken log2 fold change of peptide-encoding DNA abundance (4.5 h post-induction vs induction); higher = less antimicrobial activity (less host growth inhibition)
Settings: time post-induction: 4.5 h; library: site-saturation at positions 5, 18, 19, 20
readout: shrunken log2 fold change

entry_sequence=RRIRERPPRLPRPRPRPFQWPRP target_of_assay="Escherichia coli TOP10" recorded_result=0.0371
entry_sequence=RRIRIRPPRLPRPRPRPSNHPRP target_of_assay="Escherichia coli TOP10" recorded_result=-1.15
entry_sequence=RRIRCRPPRLPRPRPRPMVTPRP target_of_assay="Escherichia coli TOP10" recorded_result=-0.071
entry_sequence=RRIRLRPPRLPRPRPRPFTKPRP target_of_assay="Escherichia coli TOP10" recorded_result=-0.00525
entry_sequence=RRIRGRPPRLPRPRPRPSIWPRP target_of_assay="Escherichia coli TOP10" recorded_result=0.511
entry_sequence=RRIRGRPPRLPRPRPRPMWVPRP target_of_assay="Escherichia coli TOP10" recorded_result=0.168
entry_sequence=RRIRERPPRLPRPRPRPNWEPRP target_of_assay="Escherichia coli TOP10" recorded_result=0.0232
entry_sequence=RRIRKRPPRLPRPRPRPSVGPRP target_of_assay="Escherichia coli TOP10" recorded_result=0.0485
entry_sequence=RRIRSRPPRLPRPRPRPDCAPRP target_of_assay="Escherichia coli TOP10" recorded_result=0.187
entry_sequence=RRIRYRPPRLPRPRPRPHMSPRP target_of_assay="Escherichia coli TOP10" recorded_result=-0.452
entry_sequence=RRIRLRPPRLPRPRPRPNADPRP target_of_assay="Escherichia coli TOP10" recorded_result=0.126
entry_sequence=RRIRTRPPRLPRPRPRPSNLPRP target_of_assay="Escherichia coli TOP10" recorded_result=-0.97
entry_sequence=RRIRIRPPRLPRPRPRPCKCPRP target_of_assay="Escherichia coli TOP10" recorded_result=-0.0887
entry_sequence=RRIRKRPPRLPRPRPRPGLYPRP target_of_assay="Escherichia coli TOP10" recorded_result=0.324
entry_sequence=RRIRPRPPRLPRPRPRPDIGPRP target_of_assay="Escherichia coli TOP10" recorded_result=-0.0448
